Cited source: patent EP4737450A1

Biological target: plasma kallikrein (PKa) (Homo sapiens, UniProt P03952)
Construct: purchased R & D 2497-SE
Sequence (P03952 391-638 limits assumed): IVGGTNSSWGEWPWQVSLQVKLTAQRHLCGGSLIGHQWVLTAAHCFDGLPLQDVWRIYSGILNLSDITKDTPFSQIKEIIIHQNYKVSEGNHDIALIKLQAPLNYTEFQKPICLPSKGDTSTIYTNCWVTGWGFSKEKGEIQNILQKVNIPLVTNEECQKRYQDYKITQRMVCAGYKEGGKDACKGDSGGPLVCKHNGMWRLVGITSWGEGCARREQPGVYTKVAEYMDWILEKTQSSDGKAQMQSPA
Sequence (P03952 20-390 partner limits assumed): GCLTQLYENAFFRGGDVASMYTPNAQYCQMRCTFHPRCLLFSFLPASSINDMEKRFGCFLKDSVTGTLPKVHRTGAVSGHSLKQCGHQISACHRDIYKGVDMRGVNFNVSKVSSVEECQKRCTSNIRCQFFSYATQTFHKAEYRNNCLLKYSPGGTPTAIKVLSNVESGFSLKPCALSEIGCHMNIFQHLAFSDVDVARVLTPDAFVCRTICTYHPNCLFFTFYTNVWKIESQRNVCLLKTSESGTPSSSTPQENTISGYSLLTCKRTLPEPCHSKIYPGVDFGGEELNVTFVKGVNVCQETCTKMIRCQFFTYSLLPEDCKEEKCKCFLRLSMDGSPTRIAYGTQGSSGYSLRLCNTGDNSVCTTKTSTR
Experiment: Inhibitory activity against plasma kallikrein in vitro (fluorescence intensity enzyme assay, Pro-Phe-Arg-AMC substrate)
Format: biochemical
Conditions: plasma kallikrein enzyme assay, Pro-Phe-Arg-AMC substrate; read-out: PKa IC50
pIC50: −log10 of the molar value.
Where pIC50 equals or exceeds 9, the correct label is Met; where it does not, the label is Not met.

O=C(NCc1nccc(C2CC2)c1F)c1cn(Cc2ccc(CC3CC3)cc2)nc1C1COC1	Not met

Assess whether reported pIC50 for `COCc1nn(Cc2ccc(-n3ccccc3=O)cc2)cc1C(=O)NCc1nc2c(s1)CNCC2` sits at 9 or higher.
Not met

Determine whether this compound has pIC50 no lower than 9: `Cc1cc(N)nc(C)c1CNC(=O)c1cn(Cc2cn3cc(C4CC4)ccc3n2)nn1`
Met

Reported pIC50 at or above 9? `COc1ccnc(CNC(=O)c2cn(Cc3ccc(Cn4ccccc4=O)cc3)nc2CN2CC(C)(C)CC2=O)c1F`
Not met

Can `O=C(NCc1ccc2cnccc2c1)c1cnn(Cc2ccc(Cn3ccccc3=O)cc2)c1` be said to have pIC50 at or above 9?
Not met

State whether the measured pIC50 reaches 9, counting equality as reaching it, for `COc1ccnc(CNC(=O)c2cn(Cc3ccc(Cn4ccccc4=O)cc3)nc2OCc2ccccn2)c1F`
Not met
